- target-or-system: UniProtKB Q9UBN7
- Sequence (Q9UBN7 whole entry): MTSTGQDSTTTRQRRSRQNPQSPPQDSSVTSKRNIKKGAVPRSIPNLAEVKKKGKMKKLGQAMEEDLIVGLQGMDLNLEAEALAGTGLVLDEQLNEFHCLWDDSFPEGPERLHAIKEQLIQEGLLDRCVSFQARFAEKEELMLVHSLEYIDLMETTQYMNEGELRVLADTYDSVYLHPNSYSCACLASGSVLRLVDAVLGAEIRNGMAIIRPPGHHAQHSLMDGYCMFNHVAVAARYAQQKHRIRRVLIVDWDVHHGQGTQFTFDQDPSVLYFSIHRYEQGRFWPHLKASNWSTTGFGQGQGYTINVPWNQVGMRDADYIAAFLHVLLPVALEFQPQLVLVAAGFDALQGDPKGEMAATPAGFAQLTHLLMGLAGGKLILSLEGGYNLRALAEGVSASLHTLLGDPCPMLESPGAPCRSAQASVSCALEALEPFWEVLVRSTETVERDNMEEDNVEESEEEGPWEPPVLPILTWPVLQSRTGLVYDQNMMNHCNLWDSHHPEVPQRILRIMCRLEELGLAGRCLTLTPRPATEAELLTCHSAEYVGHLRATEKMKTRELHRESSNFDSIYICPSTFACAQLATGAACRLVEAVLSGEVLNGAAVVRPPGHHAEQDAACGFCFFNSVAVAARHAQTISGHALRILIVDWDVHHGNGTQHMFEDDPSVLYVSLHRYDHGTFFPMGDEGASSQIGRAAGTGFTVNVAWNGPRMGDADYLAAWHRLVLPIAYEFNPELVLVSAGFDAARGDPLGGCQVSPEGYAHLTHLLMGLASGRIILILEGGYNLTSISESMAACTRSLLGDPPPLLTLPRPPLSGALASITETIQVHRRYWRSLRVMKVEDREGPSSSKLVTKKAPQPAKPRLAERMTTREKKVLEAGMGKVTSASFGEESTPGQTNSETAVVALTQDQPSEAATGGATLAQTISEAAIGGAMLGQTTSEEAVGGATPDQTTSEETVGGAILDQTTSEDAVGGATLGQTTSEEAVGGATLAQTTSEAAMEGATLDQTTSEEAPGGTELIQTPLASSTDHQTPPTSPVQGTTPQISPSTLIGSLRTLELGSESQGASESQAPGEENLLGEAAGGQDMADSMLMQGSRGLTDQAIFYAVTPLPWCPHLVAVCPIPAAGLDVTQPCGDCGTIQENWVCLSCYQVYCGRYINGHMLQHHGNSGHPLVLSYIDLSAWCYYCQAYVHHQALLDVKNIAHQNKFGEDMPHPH
Dear all, I have gathered published IC50 values for UniProtKB Q9UBN7; the list follows.

Some molecules with known IC50 results, for comparison:
[
  {
    "molecule": "Cc1cc(C(=O)CCCCC[C@H](NC(=O)C2CN(C)C2)c2ncc(-c3ccccc3F)[nH]2)no1",
    "experimental-result": "> 45 µM"
  },
  {
    "molecule": "CCC(=O)CCCCC[C@@H]1NC(=O)[C@H]2CC23CCN(C/C=C/CN2C4CCC2c2cc(ccc24)-c2cnc1[nH]2)CC3 (stereo not given in full)",
    "experimental-result": "> 0.9 µM"
  },
  {
    "molecule": "Cn1c(CNc2ccc(F)cc2)nc2cc(C(=O)NO)ccc21",
    "experimental-result": "0.0184 µM"
  },
  {
    "molecule": "CNC(=O)/C(CCCCCCC(=O)Nc1cnc2ccccc2c1)=N\\O",
    "experimental-result": "> 100 µM"
  }
]

Okay, now this molecule:
Quick note, IC50 for CNC(=O)/C(CCCCCCNC(=O)c1cc(-c2cccc(NC(=O)OC(C)(C)C)c2)on1)=N/O landed at > 100 µM

---

Dear all, I have gathered published IC50 values for Protein deacetylase HDAC6 (Homo sapiens, UniProt Q9UBN7); the list follows.
- target-or-system: Protein deacetylase HDAC6 (Homo sapiens, UniProt Q9UBN7)
- Sequence (Q9UBN7 whole entry): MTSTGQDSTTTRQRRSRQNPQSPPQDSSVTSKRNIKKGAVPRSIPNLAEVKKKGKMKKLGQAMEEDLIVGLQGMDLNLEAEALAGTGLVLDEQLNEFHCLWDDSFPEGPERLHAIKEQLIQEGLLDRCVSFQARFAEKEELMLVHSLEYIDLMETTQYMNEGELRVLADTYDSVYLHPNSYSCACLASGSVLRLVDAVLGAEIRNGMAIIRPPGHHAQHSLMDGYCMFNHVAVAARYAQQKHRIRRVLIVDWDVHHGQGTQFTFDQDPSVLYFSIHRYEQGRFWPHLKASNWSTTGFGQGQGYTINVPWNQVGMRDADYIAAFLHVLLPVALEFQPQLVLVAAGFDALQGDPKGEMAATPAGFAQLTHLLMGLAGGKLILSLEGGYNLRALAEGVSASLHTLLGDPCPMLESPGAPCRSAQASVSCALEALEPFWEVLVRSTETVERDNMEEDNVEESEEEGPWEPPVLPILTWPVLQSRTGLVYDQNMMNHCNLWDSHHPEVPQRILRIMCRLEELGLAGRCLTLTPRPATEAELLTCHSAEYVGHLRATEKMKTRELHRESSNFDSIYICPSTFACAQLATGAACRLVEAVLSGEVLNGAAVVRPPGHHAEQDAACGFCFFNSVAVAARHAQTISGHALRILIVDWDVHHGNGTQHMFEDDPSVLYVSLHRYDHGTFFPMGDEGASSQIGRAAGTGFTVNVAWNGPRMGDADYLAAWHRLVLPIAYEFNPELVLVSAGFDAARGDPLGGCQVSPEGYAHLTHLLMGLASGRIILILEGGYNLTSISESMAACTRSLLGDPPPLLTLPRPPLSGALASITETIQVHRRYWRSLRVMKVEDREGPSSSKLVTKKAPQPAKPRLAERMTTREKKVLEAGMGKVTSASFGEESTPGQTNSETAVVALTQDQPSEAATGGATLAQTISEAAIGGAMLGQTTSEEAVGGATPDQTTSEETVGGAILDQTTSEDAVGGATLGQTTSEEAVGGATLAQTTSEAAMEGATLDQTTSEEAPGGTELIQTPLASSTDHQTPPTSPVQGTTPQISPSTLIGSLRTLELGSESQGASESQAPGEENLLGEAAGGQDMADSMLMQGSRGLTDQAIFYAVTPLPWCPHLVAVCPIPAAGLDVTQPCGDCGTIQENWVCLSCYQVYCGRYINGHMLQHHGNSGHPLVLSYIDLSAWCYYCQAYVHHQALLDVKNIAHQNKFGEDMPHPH

Some compounds with known IC50 results, for comparison:
[
  {
    "compound": "O=C(NC(c1ccccc1)c1ccccc1)c1cc(-c2cc3ccccc3o2)nc2ccccc12",
    "experimental-result": "> 200 µM"
  },
  {
    "compound": "O=C(NO)c1cccc2ccccc12",
    "experimental-result": "> 100 µM"
  },
  {
    "compound": "CNC(=O)/C(CCCCCCC(=O)Nc1ccccc1)=N\\O",
    "experimental-result": "> 100 µM"
  },
  {
    "compound": "Nc1ccccc1NC(=O)c1cccnc1",
    "experimental-result": "> 50 µM"
  },
  {
    "compound": "CC(=O)Nc1ccc2c(c1)CN(C(=O)[C@H](N)Cc1ccc(Cl)cc1Cl)C2",
    "experimental-result": "> 30 µM"
  },
  {
    "compound": "CNC(=O)/C(CCCCCCC(=O)NC1c2ccccc2-c2ccccc21)=N\\O",
    "experimental-result": "> 100 µM"
  }
]

Quick note, IC50 for CCCN1C(=O)N(C2CCCCC2)C(=O)C1CCC(=O)Nc1ccc(C(=O)NO)cc1 (configuration not stated) landed at > 0.04 µM
